System: CU-ACC1
Assay: area under concentration-response curve (viability) (AUC (a.u.)); higher = less active
Conditions: 48 h
measure: area under concentration-response curve
Just the number.

Challenge: What does the data say about its area under concentration-response curve? Entry: CN1\C(=C(O)/C2=C(C=C(Cl)S2)[S+]1([O-])=O)C(=O)NC3=NC=CC=C3
Response given: 434

Challenge: What does the data say about its area under concentration-response curve? Entry: CCN(CCO)CCCOc1ccc2c(Nc3cc(CC(=O)Nc4cccc(F)c4)[nH]n3)ncnc2c1
Response given: 390

Challenge: What does the data say about its area under concentration-response curve? Entry: COc1cc(/C=C(\C#N)C(=O)Nc2nnc(C(F)(F)F)s2)ccc1OCc1ccc(C(F)(F)F)cc1C(F)(F)F
Response given: 450

Challenge: What does the data say about its area under concentration-response curve? Entry: CC(=O)N1CCC(Nc2cc(C(=O)NC[C@H](O)CN3CCc4ccccc4C3)ncn2)CC1
Response given: 450

Challenge: What does the data say about its area under concentration-response curve? Entry: CCn1c(-c2nonc2N)nc2cnc(Oc3cccc(NC(=O)c4ccc(OCCN5CCOCC5)cc4)c3)cc21
Response given: 494

Challenge: What does the data say about its area under concentration-response curve? Entry: C=CC(=O)N1CC/C(=C\c2ccc(F)c([N+](=O)[O-])c2)C(=O)/C(=C/c2ccc(F)c([N+](=O)[O-])c2)C1
Response given: 318

Challenge: What does the data say about its area under concentration-response curve? Entry: CC(C)(C)OC(=O)CN(Cc1ccc(Cl)cc1)Cc1ccc([N+](=O)[O-])s1
Response given: 410

Challenge: What does the data say about its area under concentration-response curve? Entry: CNC(=O)c1ccc(-c2cnc3ncc(Cc4ccc5ncccc5c4)n3n2)cc1F
Response given: 481

Challenge: What does the data say about its area under concentration-response curve? Entry: CN[C@@H](C)C(=O)N[C@H]1CCCC[C@H]2CC[C@@H](C(=O)N[C@@H](c3ccccc3)c3cn(CCCCc4ccc(CCCCn5cc([C@@H](NC(=O)[C@@H]6CC[C@@H]7CCCC[C@H](NC(=O)[C@H](C)NC)C(=O)N76)c6ccccc6)nn5)cc4)nn3)N2C1=O
Response given: 260

Challenge: What does the data say about its area under concentration-response curve? Entry: C=CC(=O)N1CCC(CNc2ncnc(N)c2-c2ccc(Oc3ccccc3)cc2)CC1
Response given: 550

Challenge: What does the data say about its area under concentration-response curve? Entry: CC(C)C(=O)Nc1ccc([N+](=O)[O-])c(C(F)(F)F)c1
Response given: 551

Challenge: What does the data say about its area under concentration-response curve? Entry: CN1CCN(CC1)C2=CC3=C([NH]C(=N3)C/4=C(\N)C5=C(F)C=CC=C5NC4=O)C=C2
Response given: 485

Challenge: What does the data say about its area under concentration-response curve? Entry: CC1(C)Cc2c(sc(NC(=S)NC(=O)c3ccccc3)c2C(=O)O)CO1
Response given: 490

Challenge: What does the data say about its area under concentration-response curve? Entry: CSCC[C@@H](NC(=O)[C@@H](Cc1ccccc1)NC(=O)CNC(=O)CNC(=O)[C@@H](N)Cc1ccc(O)cc1)C(=O)O
Response given: 535

* * *

Test system: CU-ACC1
Assay: area under concentration-response curve (viability) (AUC (a.u.)); higher = less active
Conditions: 48 h
measure: area under concentration-response curve

Challenge: Quick check: area under concentration-response curve on CU-ACC1, item COC(=O)Nc1cc(Nc2cc(NC3CC3)c3ncc(C#N)n3n2)c(Cl)c(N2CCN(C)CC2)c1 ?
Response given: 466

Challenge: Quick check: area under concentration-response curve on CU-ACC1, item COc1ccc(CNC(=O)c2cc(-c3cncc(Cl)c3)cnc2-c2ccccn2)nc1OC ?
Response given: 430

Challenge: Quick check: area under concentration-response curve on CU-ACC1, item CC(C)(Cc1ccc2ccccc2c1)NC[C@@H](O)COc1cccc(Cl)c1C#N ?
Response given: 460

Challenge: Quick check: area under concentration-response curve on CU-ACC1, item Clc1cc2c(NC3CCCC3)nnc(-c3ccncc3)c2cc1Cl ?
Response given: 581

Challenge: Quick check: area under concentration-response curve on CU-ACC1, item CC1=C(C=CC=C1)N2\C(=N/C3=C(C(=CC=C3)C)C2=O)C[N]4N=CC5=C4N=CN=C5N ?
Response given: 583

Challenge: Quick check: area under concentration-response curve on CU-ACC1, item CN1CCN(c2ccc3nc(-c4cc(C(C)(C)C)c(OCCCC(=O)NCCCN=[N+]=[N-])c(C(C)(C)C)c4)[nH]c3c2)CC1 ?
Response given: 462

Challenge: Quick check: area under concentration-response curve on CU-ACC1, item CC1CNc2c(cccc2[S+](=O)([O-])N[C@@H](CCCNC(=N)N)C(=O)N2CC[C@@H](C)C[C@@H]2C(=O)O)C1 (stereo partly drawn) ?
Response given: 502

Challenge: Quick check: area under concentration-response curve on CU-ACC1, item C[C@H](NC(=O)C(=O)Nc1ccccc1C(C)(C)C)C(=O)N[C@@H](CC(=O)O)C(=O)COc1c(F)c(F)cc(F)c1F ?
Response given: 328

* * *

System: CU-ACC2
Assay: area under concentration-response curve (viability) (AUC (a.u.)); higher = less active
Details: 48 h
Please note: yes applies when area under concentration-response curve is 500 or greater, and no applies otherwise.

Challenge: hey, is area under concentration-response curve for this one >= 500? CCC(=O)OCC(=O)C1(OC(=O)CC)C(C)CC2C3CC\C4=C\C(=O)\C=C/C4(C)C3(F)C(O)CC12C (centres undefined)
Response given: yes

Challenge: hey, is area under concentration-response curve for this one >= 500? C[C@H](CN(C)C)Oc1nc(Nc2cc3cccc(Cl)c3cn2)cnc1C#N
Response given: yes

Challenge: hey, is area under concentration-response curve for this one >= 500? CCOC(=O)C/1=C(C)/NC(=S)NC1C2=CC=CC(=C2)O (centres undefined)
Response given: yes

Challenge: hey, is area under concentration-response curve for this one >= 500? COc1cc2nc(-c3cc(F)ccc3O)nc(N[C@@H]3CNC[C@H]3C(C)(C)O)c2cc1OC
Response given: no

Challenge: hey, is area under concentration-response curve for this one >= 500? Cc1nc(NC(=O)N2CCC[C@H]2C(N)=O)sc1-c1ccnc(C(C)(C)C(F)(F)F)c1
Response given: no

Challenge: hey, is area under concentration-response curve for this one >= 500? C[N]1N=CC2=C1C=C(C(=C2)OC3=CC=C(NC(=O)\C4=C\C=C(\C)N(C4=O)C5=CC=C(F)C=C5)C=C3F)C6=C[NH]N=C6
Response given: yes

Challenge: hey, is area under concentration-response curve for this one >= 500? S=C1N\C=N/C2=C1[NH]C=N2
Response given: yes

Challenge: hey, is area under concentration-response curve for this one >= 500? C[C@H]1CN(C[C@H](Cc2ccccc2)C(=O)NCC(=O)O)CC[C@@]1(C)c1cccc(O)c1
Response given: yes

Challenge: hey, is area under concentration-response curve for this one >= 500? NNCCc1ccccc1.O=S(=O)(O)O
Response given: yes

* * *

Tested on: CU-ACC1
Assay: AC50 viability; higher = less potent
Settings: 48 h
measure: AC50 viability (µM)
Numeric answer only, unit µM assumed.

Challenge: What does the data say about its AC50 viability? Entry: COc1cc(C(=O)N2CCC(N3CCN(C)CC3)CC2)ccc1Nc1ncc2c(n1)N(C)c1ccccc1C(=O)N2C
Response given: 26.3

Challenge: What does the data say about its AC50 viability? Entry: O=C(/C=C/c1ccc(Cl)cc1)N1CCC2(CC1)CN(Cc1ccc(Cl)c(Cl)c1)C(=O)O2
Response given: 20.9

Challenge: What does the data say about its AC50 viability? Entry: Nc1nc(Nc2ccc([S+](N)(=O)[O-])cc2)nn1C(=O)c1c(F)cccc1F
Response given: 11.8

Challenge: What does the data say about its AC50 viability? Entry: N=C(N)c1ccc(OCCCCCOc2ccc(C(=N)N)cc2)cc1
Response given: 13.2

* * *

System: CU-ACC2
Experiment: AC50 viability; higher = less potent
Conditions: 48 h
measure: log10 AC50 viability (log10 of the value in µM)
Log scale reminder: AC50 viability in µM, then log10 taken.

Challenge: What does the data say about its log10 AC50 viability? Entry: Cn1cc(-c2cnn3c(N)c(Br)c([C@@H]4CCCNC4)nc23)cn1
Response given: 1.32

Challenge: What does the data say about its log10 AC50 viability? Entry: CN(C)C1CCN(C(=O)c2ccc(NC(=O)Nc3ccc(-c4nc(N5CCOCC5)nc(N5CCOCC5)n4)cc3)cc2)CC1
Response given: 0.62

Challenge: What does the data say about its log10 AC50 viability? Entry: COCCNCCc1cccc(Nc2ncc3c(n2)-c2ccccc2[C@H](c2ccccc2F)C3)c1
Response given: 1.42

Challenge: What does the data say about its log10 AC50 viability? Entry: CC(=O)c1cc2c(o1)C(=O)c1ccccc1C2=O
Response given: 0.22

Challenge: What does the data say about its log10 AC50 viability? Entry: CN(Cc1ccc(/C=C/C(=O)NO)cc1)CC12CC3CC(CC(C3)C1)C2
Response given: 0.02
